Measured Target: human TRPV4 (Homo sapiens, UniProt Q9HBA0)
Sequence (Q9HBA0 whole entry): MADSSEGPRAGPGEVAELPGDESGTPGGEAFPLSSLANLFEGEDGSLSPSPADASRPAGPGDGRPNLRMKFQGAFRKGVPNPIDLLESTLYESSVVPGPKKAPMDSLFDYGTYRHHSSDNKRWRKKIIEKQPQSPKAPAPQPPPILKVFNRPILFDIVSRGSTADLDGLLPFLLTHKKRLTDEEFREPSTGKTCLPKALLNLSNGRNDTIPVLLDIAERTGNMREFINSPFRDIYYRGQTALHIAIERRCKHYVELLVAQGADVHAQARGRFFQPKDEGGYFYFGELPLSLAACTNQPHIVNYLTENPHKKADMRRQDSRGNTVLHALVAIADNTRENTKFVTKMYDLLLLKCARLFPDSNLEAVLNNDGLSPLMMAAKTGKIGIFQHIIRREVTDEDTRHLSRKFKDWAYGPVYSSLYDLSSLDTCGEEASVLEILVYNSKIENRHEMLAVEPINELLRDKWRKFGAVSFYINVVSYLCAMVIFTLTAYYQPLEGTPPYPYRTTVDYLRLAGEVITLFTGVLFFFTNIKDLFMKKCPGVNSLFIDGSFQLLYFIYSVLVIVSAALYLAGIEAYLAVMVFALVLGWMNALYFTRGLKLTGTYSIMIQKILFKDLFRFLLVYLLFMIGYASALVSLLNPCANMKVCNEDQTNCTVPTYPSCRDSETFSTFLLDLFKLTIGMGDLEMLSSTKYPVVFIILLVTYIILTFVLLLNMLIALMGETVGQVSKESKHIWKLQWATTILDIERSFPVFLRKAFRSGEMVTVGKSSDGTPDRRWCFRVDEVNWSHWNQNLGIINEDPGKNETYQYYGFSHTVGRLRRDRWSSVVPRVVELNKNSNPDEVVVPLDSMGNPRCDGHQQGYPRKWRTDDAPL
Assay Overview: Ligand-gated assay (Fluo4 calcium, FLIPR; inhibition of agonist-induced activation)
Test Settings: HEK-293-MSR-II cells transduced with BacMam human TRPV4; agonist at EC80
Endpoint: IC50

Worked set:
Compound: Cc1c(C(C)(C)C)noc1N1C[C@@]2(CCC[C@](C)(Cn3cnc4ccc(C#N)cc43)C2)OC1=O [Example 41]
IC50: 0.1 to 10 nM
--
Compound: C[C@]1(Cn2cnc3ccc(C#N)cc32)CCC[C@]2(CN(Cc3cn(-c4ccccc4)nn3)C(=O)O2)C1 [Example 105]
IC50: 10 to 50 nM
--
Compound: C[C@]1(Cn2cnc3ccc(C#N)cc32)CCC[C@@]2(CN(c3ccc(Cl)nc3)C(=O)O2)C1 [Example 18]
IC50: 10 to 50 nM

Record IC50 for all entries; do not skip any.
1. Cc1noc(N2C[C@@]3(CCC[C@H](Cn4cnc5ccc(C#N)cc54)C3)OC2=O)c1C [Example 58]
2. CC(C)(C#N)c1cc(N2C[C@@]3(CCC[C@](C)(Cn4cnc5ccc(C#N)cc54)C3)OC2=O)on1 [Example 2]
3. C[C@]1(Cn2cnc3ccc(C#N)cc32)CCC[C@@]2(CN(Cc3ccccn3)C(=O)O2)C1 [Example 4]
4. CC(C)(OCCOP(C)(C)=O)c1cnc(N2C[C@@]3(CCC[C@](C)(Cn4cnc5ccc(C#N)cc54)C3)OC2=O)cn1 [Example 164]

1. 50 to 500 nM
2. 0.1 to 10 nM
3. 0.1 to 10 nM
4. 10 to 50 nM

====

Measured Target: human TRPV4 (Homo sapiens, UniProt Q9HBA0)
Assay Overview: Ligand-gated assay (Fluo4 calcium, FLIPR; inhibition of agonist-induced activation)
Test Settings: HEK-293-MSR-II cells transduced with BacMam human TRPV4; agonist at EC80
Please provide measured IC50 for the entries that follow.

For every item in the list below, what is its measured IC50?
1. Cc1cc(Cl)ncc1N1C[C@@]2(CCC[C@](C)(Cn3cnc4ccc(C#N)cc43)C2)OC1=O
2. C[C@]1(Cn2cnc3ccc(C#N)cc32)CCC[C@@]2(CN(c3ncc(C(F)(F)F)cn3)C(=O)O2)C1

1: 0.1 to 10 nM; 2: 50 to 500 nM

====

Measured Target: human TRPV4 (Homo sapiens, UniProt Q9HBA0)
Assay Overview: Ligand-gated assay (Fluo4 calcium, FLIPR; inhibition of agonist-induced activation)
Test Settings: HEK-293-MSR-II cells transduced with BacMam human TRPV4; agonist at EC80
Endpoint: IC50

Answered examples (10):
Compound: Cn1cc(-c2cccc(CN3C[C@@]4(CCC[C@](C)(Cn5cnc6ccc(C#N)cc65)C4)OC3=O)n2)cn1
Measured Target: human TRPV4 (Homo sapiens, UniProt Q9HBA0)
Endpoint: IC50
Result: 0.0001 to 0.01 µM

Compound: Cn1ccc(-c2cc(N3C[C@@]4(CCC[C@](C)(Cn5cnc6ccc(C#N)cc65)C4)OC3=O)on2)n1
Measured Target: human TRPV4 (Homo sapiens, UniProt Q9HBA0)
Endpoint: IC50
Result: 0.01 to 0.05 µM

Compound: C[C@]1(Cn2cnc3ccc(C#N)cc32)CCC[C@@]2(CN(Cc3csc4ncccc34)C(=O)O2)C1 (relative stereo)
Measured Target: human TRPV4 (Homo sapiens, UniProt Q9HBA0)
Endpoint: IC50
Result: 0.0001 to 0.01 µM

Compound: CCc1noc(C(C)(C)CN2C[C@@]3(CCC[C@H](Cn4cnc5ccc(C#N)cc54)C3)OC2=O)n1
Measured Target: human TRPV4 (Homo sapiens, UniProt Q9HBA0)
Endpoint: IC50
Result: 0.0001 to 0.01 µM

Compound: C[C@]1(Cn2cnc3ccc(C#N)cc32)CCC[C@@]2(CN(c3cc(C4CCC4)no3)C(=O)O2)C1
Measured Target: human TRPV4 (Homo sapiens, UniProt Q9HBA0)
Endpoint: IC50
Result: 0.01 to 0.05 µM

Compound: Cc1cc(N2CCOCC2)ncc1N1C[C@@]2(CCC[C@](C)(Cn3cnc4ccc(C#N)cc43)C2)OC1=O
Measured Target: human TRPV4 (Homo sapiens, UniProt Q9HBA0)
Endpoint: IC50
Result: 0.0001 to 0.01 µM

Compound: CC(C)(C#N)c1noc(N2C[C@@]3(CCC[C@](C)(Cn4cnc5ccc(C#N)cc54)C3)OC2=O)c1Cl
Measured Target: human TRPV4 (Homo sapiens, UniProt Q9HBA0)
Endpoint: IC50
Result: 0.0001 to 0.01 µM

Compound: C=C(C)c1cc(N2C[C@@]3(CCC[C@](C)(Cn4cnc5ccc(C#N)cc54)C3)OC2=O)on1
Measured Target: human TRPV4 (Homo sapiens, UniProt Q9HBA0)
Endpoint: IC50
Result: 0.01 to 0.05 µM

Compound: N#Cc1cccc(-n2cc(CN3C[C@@]4(CCC[C@H](Cn5cnc6ccc(C#N)cc65)C4)OC3=O)nn2)c1
Measured Target: human TRPV4 (Homo sapiens, UniProt Q9HBA0)
Endpoint: IC50
Result: 0.01 to 0.05 µM

Compound: C[C@]1(Cn2cnc3ccc(C#N)cc32)CCC[C@@]2(CN(c3ncccc3Cl)C(=O)O2)C1
Measured Target: human TRPV4 (Homo sapiens, UniProt Q9HBA0)
Endpoint: IC50
Result: 0.01 to 0.05 µM

Go through the items and report each one's IC50.
1. N#Cc1ccc2nc(C(F)(F)F)n(C[C@H]3CCC[C@]4(C3)CN(Cc3csc5ccc(Cl)cc35)C(=O)O4)c2c1 (stereo in doubt)
2. C[C@]1(Cn2cnc3ccc(C#N)cc32)CCC[C@@]2(CN(c3ncc(Cl)cc3Cl)C(=O)O2)C1
3. CC(C)c1cc(N2C[C@@]3(CCC[C@](C)(Cn4cnc5ccc(C#N)cc54)C3)OC2=O)on1
4. C[C@]1(Cn2cnc3ccc(C#N)cc32)CCC[C@@]2(CN(Cc3ccc(F)cn3)C(=O)O2)C1

1: 0.05 to 0.5 µM; 2: 0.0001 to 0.01 µM; 3: 0.01 to 0.05 µM; 4: 0.0001 to 0.01 µM

Values compiled from patent US9187464B2.
